- assayed_system: human JAK2 (a.a. 828-1132) (Homo sapiens (Human), UniProt O60674)
- Sequence (O60674 828-1132): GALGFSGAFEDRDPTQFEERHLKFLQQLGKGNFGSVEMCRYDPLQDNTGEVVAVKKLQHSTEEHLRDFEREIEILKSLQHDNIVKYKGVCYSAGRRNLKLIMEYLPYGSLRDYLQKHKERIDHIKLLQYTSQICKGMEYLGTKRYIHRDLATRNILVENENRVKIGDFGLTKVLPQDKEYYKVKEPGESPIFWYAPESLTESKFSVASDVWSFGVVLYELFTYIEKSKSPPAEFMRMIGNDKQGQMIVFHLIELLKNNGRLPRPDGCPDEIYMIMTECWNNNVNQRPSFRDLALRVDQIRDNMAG
- test_summary: In vitro JAK kinase assay (HTRF), JAK2 versus JAK1
- Format: biochemical
- measurement_setup: IC50 ratio, 1 mM ATP
endpoint: JAK2/JAK1

Field: JAK2/JAK1 (human JAK2 (a.a. 828-1132) (Homo sapiens (Human), UniProt O60674)). Entry: `N#CC[C@]1(n2cc(-c3ncnc4[nH]ccc34)cn2)C[C@H](N2CCC(Oc3cc(CN4CCC[C@@H]4CO)cc(C(F)(F)F)n3)CC2)C1` >10

`N#CCC1(n2cc(-c3ncnc4[nH]ccc34)cn2)CN(C2CCN(C(=O)c3ccnc(C(F)(F)F)n3)CC2)C1` , same question. >10

# iterate: `CC(C)(O)c1cc(O[C@H]2CC[C@@H](N3CC(CC#N)(n4cc(-c5ncnc6[nH]ccc56)cn4)C3)CC2)nc(C(F)(F)F)c1` >10
